Target: IDH1 R132H (Homo sapiens, UniProt O75874, R132H)
Sequence (O75874 whole entry R132H): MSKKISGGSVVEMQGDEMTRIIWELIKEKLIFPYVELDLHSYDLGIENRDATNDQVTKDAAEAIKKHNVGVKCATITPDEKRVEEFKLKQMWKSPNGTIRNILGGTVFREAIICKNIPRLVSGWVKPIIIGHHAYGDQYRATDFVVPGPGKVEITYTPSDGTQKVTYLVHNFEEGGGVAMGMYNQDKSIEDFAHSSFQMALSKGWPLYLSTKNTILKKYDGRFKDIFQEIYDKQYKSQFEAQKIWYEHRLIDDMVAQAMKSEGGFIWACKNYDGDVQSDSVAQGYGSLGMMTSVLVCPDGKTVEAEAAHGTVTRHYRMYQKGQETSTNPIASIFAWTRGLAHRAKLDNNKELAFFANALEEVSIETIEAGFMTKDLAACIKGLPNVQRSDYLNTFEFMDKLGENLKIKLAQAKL
Assay: Assay for IDH1 R132H inhibitors (NADPH/aKG, resazurin detection)
Format: biochemical
Conditions: Table 3; enzyme assay, 50 minutes at room temperature; read-out: IC50 (IDH1 R132H Inhibition)
pIC50: −log10 of the molar value.
Parameter: pIC50. Scope: all listed entries.

compound	pIC50
COCCC(=O)N1CCN(c2nc(C3CC3)c(-c3ccc(F)cc3F)cc2C#N)C[C@H]1C	≥ 6.00
CC(C)c1cc(-c2cccc(F)c2)c(C#N)c(N2CC(C)N(C(=O)c3ccoc3)C(C)C2)n1 (stereo not drawn)	5.30 to 6.00
CC(C)c1nc(N2CCN(C(=O)c3ccco3)CC2c2ccccc2)c(C#N)cc1-c1ccccc1 (stereo not drawn)	4.82 to 5.30
Cc1cccc(-c2cc(C#N)c(N3CCN(C(=O)c4ccco4)[C@H](C)C3)nc2C(C)C)c1	4.82 to 5.30
COCCC(=O)N1CCN(c2nc(C(C)C)c(Cc3ccccc3)cc2C#N)C[C@H]1C	5.30 to 6.00
N#Cc1cc(-c2ccccc2)c(-c2ccccc2)nc1N1CCN(C(=O)Cc2ccccc2)CC1	4.82 to 5.30
COCCC(=O)N1CCN(c2nc(C3CC3)c(-c3cccc(F)c3)cc2C#N)C[C@H]1C	≥ 6.00
COCCC(=O)N1CCN(c2nc(C3CC3)c(-c3ccsc3)c(C)c2C#N)C[C@H]1C	≥ 6.00
COCCC(=O)N1CCN(c2nc(C3CC3)c(-c3ccc(C)c(F)c3)c(C)c2C#N)C[C@H]1C	≥ 6.00
CC(C)c1nc(N2CCN(C(=O)Cc3ccccc3)C(C)C2)c(C#N)cc1-c1ccccc1 (stereo not drawn) [Compound 139]	5.30 to 6.00
COCCC(=O)N1CCN(c2nc(C(C)C)c(-c3cncnc3)cc2C#N)C[C@H]1C	4.82 to 5.30
COCCC(=O)N1CCN(c2nc(C(C)C)c(-c3cccc(C)c3)cc2C#N)C[C@H]1C	5.30 to 6.00
COCCC(=O)N1CCN(c2nc(C3CC3)c(-c3ccc(OC(F)(F)F)cc3)cc2C#N)C[C@H]1C	≥ 6.00
COCCC(=O)N1CCN(c2nc(C(C)C)c(-c3ccccc3)cc2C#N)C[C@H]1C	≥ 6.00
CC[C@@H]1CN(c2nc(C(C)C)c(-c3ccccc3)cc2C#N)CCN1C(=O)c1ccco1	4.82 to 5.30
CC(C)c1cc(-c2cccc(F)c2)c(C#N)c(N2CCN(C(=O)c3c[nH]c4ccccc34)CC2)n1	4.82 to 5.30
COc1ccccc1-c1cc(C(C)C)nc(N2CCN(C(=O)c3ccco3)CC2)c1C#N	4.82 to 5.30
CC(C)c1cc(-c2ccccc2)nc(N2CCN(C(=O)c3ccco3)CC2)c1C#N	4.82 to 5.30
COc1ccccc1-c1cc(C#N)c(N2CCN(C(=O)c3ccco3)[C@H](C)C2)nc1C(C)C	5.30 to 6.00
CC(C)c1nc(N2CCN(C(=O)c3ccoc3)CC2c2ccccc2)c(C#N)cc1-c1ccccc1 (stereo not drawn)	4.82 to 5.30
CC(C)c1cc(-c2ccccc2)c(C#N)c(N2CCN(C(=O)c3ccoc3)[C@H](C)C2)n1	5.30 to 6.00
COc1ccccc1-c1cc(C(C)C)nc(N2CCN(C(=O)Cc3ccccc3)C(C)C2)c1C#N (stereo not drawn)	5.30 to 6.00
COCCC(=O)N1CCN(c2nc(C(C)C)c(-c3ccc(F)cc3)cc2C#N)C[C@H]1C	≥ 6.00
CC(C)c1cc(-c2ccccc2)c(C#N)c(N2CCN(C(=O)c3ccoc3)[C@@H](C)C2)n1	5.30 to 6.00
COCCC(=O)N1CCN(c2nc(C(C)C)c(-c3ccc(C(C)C)cc3)cc2C#N)C[C@H]1C	5.30 to 6.00
CC(C)c1cc(-c2cccc(F)c2)c(C#N)c(N2CCN(C(=O)c3ccco3)C(C)C2)n1 (stereo not drawn)	4.82 to 5.30
CC(C)c1cc(-c2cccc(F)c2)c(C#N)c(N2CCN(C(=O)c3c[nH]c4ccccc34)C(C)C2)n1 (stereo not drawn)	4.82 to 5.30

----------
Below, each entry is listed alongside its reported IC50.
Target: IDH1 R132H (Homo sapiens, UniProt O75874, R132H)
Experiment: Assay for IDH1 R132H inhibitors (NADPH/aKG, resazurin detection)
Type: biochemical
Conditions: enzyme assay of Example 12; read-out: IDH1R132H IC50

compound	IC50
COCCC(=O)N1CCN(c2nc(C3CC3)c(-c3ccc(F)nc3)c(C)c2C#N)C[C@H]1C	< 500 nM
COCCC(=O)N1CCN(c2nc(C3CC3)c(-c3ccccc3C#N)cc2C#N)C[C@H]1C(C)C	500 to 1000 nM
N#Cc1cc(-c2ccnc(NCCO)n2)c(C2CC2)nc1N1CCN(C(=O)C2CC2)[C@H](C2CC2)C1	< 500 nM
COCCC(=O)N1CCN(c2nc(C3CC3)c(-c3cccc4[nH]ncc34)cc2C#N)C[C@H]1C	< 500 nM
C=CC(=O)N1CCOC(c2cc(C#N)c(N3CCN(C(=O)C4CC4)[C@H](C)C3)nc2C2CC2)C1 (stereo partly shown)	500 to 1000 nM
N#Cc1cc(-c2cnnc3ccccc23)c(C2CC2)nc1N1CCN(C(=O)C2CC2)[C@H](C2CC2)C1	500 to 1000 nM
C=Cc1cc(-c2cc(C#N)c(N3CCN(C(=O)CCOC)[C@H](C(C)C)C3)nc2C2CC2)ccn1	< 500 nM
C=Cc1cc(N(C)c2cc(C#N)c(N3CCN(C(=O)CCO)[C@H](C4CC4)C3)nc2C2CC2)ccn1	< 500 nM
COCCC(=O)N1CCN(c2nc(C3CC3)c(-c3ccc4nccn4c3)cc2C#N)C[C@H]1C	< 500 nM
C=Cc1cc(-c2cc(C#N)c(N3CCN(C(=O)C4CC4)[C@H](C4CC4)C3)nc2C2CC2)c2ccncc2n1	< 500 nM
COCCC(=O)N1CCN(c2nc(C3CC3)c(-c3ccc4nnnn4c3)cc2C#N)C[C@H]1C	500 to 1000 nM
CCOC1CC1C(=O)N1CCN(c2nc(C3CC3)c(-c3cccc4cnccc34)cc2C#N)C[C@H]1C1CC1 (stereo partly shown)	< 500 nM
C=Cc1cc(-c2cc(C#N)c(N3CCN(C(=O)CCO)[C@H](C(C)C)C3)nc2C2CC2)ccn1	< 500 nM
CCS(=O)(=O)Nc1cccc(-c2cc(C#N)c(N3CCN(C(=O)CCOC)[C@H](C)C3)nc2C2CC2)c1	< 500 nM
COCCC(=O)N1CCN(c2nc(C3CC3)c(OCc3cccc(N)c3)cc2C#N)C[C@H]1C	< 500 nM
C=Cc1cnnc(-c2cc(C#N)c(N3CCN(C(=O)C4CC4)[C@H](C4CC4)C3)nc2C2CC2)c1	< 500 nM
COCCC(=O)N1CCN(c2nc(C3CC3)c(-c3cccc(NC(C)=O)c3)cc2C#N)C[C@H]1C	500 to 1000 nM
C=Cc1cnc2c(-c3cc(C#N)c(N4CCN(C(=O)CCO)[C@H](C)C4)nc3C3CC3)cccc2n1	< 500 nM
C=Cc1cc(-c2cc(C#N)c(N3CCN(C(=O)C4CC4)[C@H](C4CC4)C3)nc2C2CC2)ccn1	< 500 nM

----------
Biological target: IDH1 R132H (Homo sapiens, UniProt O75874, R132H)
Assay: Assay for IDH1 R132H inhibitors (NADPH/aKG, resazurin detection)
Type: biochemical
Conditions: Table 3; enzyme assay, 50 minutes at room temperature; read-out: IC50 (IDH1 R132H Inhibition)
Readings of IC50 for the listed molecules
endpoint-label: IC50

molecule	obs-value
COCCC(=O)N1CCN(c2nc(C(C)C)c(-c3ccc(F)cc3)cc2C(=O)OC)C[C@H]1C	1 to 5 µM
N#Cc1c(-c2ccccc2)cc(C2CCCCC2)nc1N1CCN(C(=O)c2ccco2)CC1	5 to 15 µM
CC(C)c1cc(-c2ccccc2)c(C#N)c(N2C[C@@H](C)N(C(=O)c3ccccc3)[C@@H](C)C2)n1	1 to 5 µM
COCCC(=O)N1CCN(c2nc(C3CC3)c(-c3ccc4c(c3)OCO4)c(C)c2C#N)C[C@H]1C	≤ 1 µM
CC(C)c1cc(-c2cccc(O)c2)c(C#N)c(N2CCN(C(=O)c3ccoc3)[C@H](C)C2)n1	1 to 5 µM
CC(C)c1cc(-c2ccccc2O)c(C#N)c(N2CCN(C(=O)c3ccoc3)[C@H](C)C2)n1	5 to 15 µM
CC(C)c1nc(N2CCN(C(=O)c3ccco3)C(C)C2)c(C#N)cc1-c1ccccc1 (stereo not shown)	5 to 15 µM
CC(C)c1cc(-c2ccccc2)c(C#N)c(N2CCN(C(=O)c3ccoc3)C(C)C2)n1 (stereo not shown)	1 to 5 µM
Cc1ccc(-c2cc(C#N)c(N3CCN(C(=O)Cc4cccs4)[C@H](C)C3)nc2C(C)C)cc1	1 to 5 µM
COc1ccccc1-c1cc(C(C)C)nc(N2CCN(C(=O)c3ccccc3)CC2)c1C#N	1 to 5 µM
